# Target desc: human B1R receptor (bradykinin 1 receptor) (Homo sapiens, UniProt P46663)
# Construct: host or cells: CHO K1 cells (hB1R cells)
# Sequence (P46663 1-353): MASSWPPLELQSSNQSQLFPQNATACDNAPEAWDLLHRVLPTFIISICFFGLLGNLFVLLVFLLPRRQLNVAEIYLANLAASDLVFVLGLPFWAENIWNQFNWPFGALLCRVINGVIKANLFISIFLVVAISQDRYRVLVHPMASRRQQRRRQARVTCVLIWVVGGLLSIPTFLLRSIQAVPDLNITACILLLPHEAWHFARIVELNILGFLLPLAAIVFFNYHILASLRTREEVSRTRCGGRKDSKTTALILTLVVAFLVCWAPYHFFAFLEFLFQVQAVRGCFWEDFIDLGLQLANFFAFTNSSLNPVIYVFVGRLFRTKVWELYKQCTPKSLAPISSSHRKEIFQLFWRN
# Assay method text: FLIPR Ca2+ assay (Fluo-4) on CHO K1 cells stably transfected with the human B1R gene; % activation and % inhibition at 10 μM
# Format: cell-based
# Test conditions: CHO-K1, test substance 10 μM; CHO K1 hB1R cells; Ca2+ inflow after 0.5 nM Lys-Des-Arg9-bradykinin; read-out: B1R antagonism, human [10 μM] % inhibition
inhibition at 10 µM vs 90%: at or above is t, below is f.

Compound | Answer label
COc1cc(C)c(S(=O)(=O)N2CCC(OCCC(=O)N3CCC(O)(Cc4ccccc4)CC3)C2)c(C)c1 (stereo not drawn) [Example 189] | f
COc1cc(C)c(S(=O)(=O)N2CCCCC2COCC(=O)N2CCC(O)(c3cccc(F)c3)CC2)c(C)c1 (stereo not drawn) [Example 142] | t
COc1cc(C)c(S(=O)(=O)N2Cc3ccccc3CC2COCC(=O)N2CCC(O)(c3cccnc3)CC2)c(C)c1C (stereo not drawn) [Example 195] | t
COc1cc(C)c(S(=O)(=O)N2CCCCC2COCCC(=O)N2CCC(O)(c3ccc(Cl)cc3)CC2)c(C)c1 (stereo not drawn) [Example 181] | f
COc1cc(C)c(S(=O)(=O)N2CCCC2COCC(=O)N2CCC(O)(Cc3ccccc3)CC2)c(C)c1 (stereo not drawn) [Example 216] | t
COc1cc(C)c(S(=O)(=O)N2CCCCC2COCC(=O)N2CCC(O)(c3ccc(Cl)c(C(F)(F)F)c3)CC2)c(C)c1 (stereo not drawn) [Example 246] | t
COc1cc(C)c(S(=O)(=O)N2CCC(OCC(=O)N3CCC(O)(Cc4ccccc4)CC3)C2)c(C)c1C (stereo not drawn) [Example 7] | t
O=C(COCC1CCCN1S(=O)(=O)c1c(Cl)cc(C(F)(F)F)cc1Cl)N1CCC(O)(Cc2ccccc2)CC1 (stereo not drawn) [Example 169] | f
Cc1cc(S(=O)(=O)N(C)CCOCC(=O)N2CCC(O)(Cc3ccccc3)CC2)c(C)cc1Cl [Example 153] | f
COc1cc(C)c(S(=O)(=O)N2CCCCC2COCCC(=O)N2CCC(O)(c3ccccc3)CC2)c(C)c1 (stereo not drawn) [Example 183] | f
O=C(COCC1CCCN1S(=O)(=O)c1c(Cl)cc(C(F)(F)F)cc1Cl)N1CCC(O)(c2ccccc2)CC1 (stereo not drawn) [Example 168] | f
